Entry source: ChEMBL document CHEMBL1146906

Tested on: Mus musculus
methodNotes: Anticonvulsant activity against tonic phase of audiogenic seizures in ip dosed DBA/2 mouse
Type: functional
studyConditions: DBA/2, ip
I'd appreciate it if you marked entries y when ED50 is lower than 30 µmol/kg and n when it is not.

Strictly below 30 µmol/kg in ED50? CCN(CC)CC(=O)N1CCc2cc(OC)c(OC)cc2C1c1cccc(N)c1 (centres undefined)
n

Just wondering, is ED50 of COc1cc2c(cc1OC)C(c1ccccc1)N(C(=O)CN1CCCCC1)CC2 (centres undefined) below 30 µmol/kg?
n

Does this compound meet the criterion ED50 < 30 µmol/kg? COc1cc2c(cc1OC)C(c1cccc(N)c1)N(C(=O)CN1CCCCC1)CC2 (centres undefined)
n

Please check: ED50 for CCN(CC)CC(=O)N1CCc2cc(OC)c(OC)cc2C1c1ccc(N)cc1 (centres undefined) , strictly under 30 µmol/kg or not?
n

In the record for COc1cc2c(cc1OC)C(c1ccccc1)N(C(=O)CN1CCOCC1)CC2 (centres undefined) , is ED50 less than 30 µmol/kg?
n

Please determine if CCN(CC)CC(=O)N1CCc2cc(OC)c(OC)cc2C1c1ccccc1 (centres undefined) is below 30 µmol/kg in terms of ED50.
n

Is the reported ED50 for COc1cc2c(cc1OC)C(c1cccc([N+](=O)[O-])c1)N(C(=O)CN1CCCCC1)CC2 (centres undefined) strictly below 30 µmol/kg?
n

Does CCN(CC)CC(=O)N1CCc2cc(OC)c(OC)cc2C1c1ccc([N+](=O)[O-])cc1 (centres undefined) have ED50 strictly under 30 µmol/kg?
n

Consider the compound COc1cc2c(cc1OC)C(c1ccc([N+](=O)[O-])cc1)N(C(=O)CN1CCOCC1)CC2 (centres undefined) . Is its ED50 strictly less than 30 µmol/kg?
n

Is it true that ED50 reported for COc1cc2c(cc1OC)C(c1ccc(F)cc1)N(C(=O)CN1CCOCC1)CC2 (centres undefined) is less than 30 µmol/kg?
n

For this compound, is ED50 lower than 30 µmol/kg? CCN(CC)CC(=O)N1CCc2cc(OC)c(OC)cc2C1c1ccc(F)cc1 (centres undefined)
n

Consider COc1cc2c(cc1OC)C(c1ccc(Cl)cc1)N(C(=O)CN1CCCCC1)CC2 (centres undefined) . Does its ED50 lie strictly below 30 µmol/kg?
y

State whether 30 µmol/kg exceeds ED50 recorded for CCN(CC)CC(=O)N1CCc2cc(OC)c(OC)cc2C1c1ccc(Br)cc1 (centres undefined) .
y

Regarding COc1cc2c(cc1OC)C(c1cccc(N)c1)N(C(=O)CN1CCOCC1)CC2 (centres undefined) , kindly confirm whether its ED50 is beneath 30 µmol/kg.
n

Is the reported ED50 for COc1cc2c(cc1OC)C(c1ccc(N)cc1)N(C(=O)CN1CCCCC1)CC2 (centres undefined) strictly below 30 µmol/kg?
n

Strictly below 30 µmol/kg in ED50? COc1cc2c(cc1OC)C(c1ccc(N)cc1)N(C(=O)CN1CCOCC1)CC2 (centres undefined)
n

Determine whether this compound shows ED50 lower than 30 µmol/kg (ties excluded): CCN(CC)CC(=O)N1CCc2cc(OC)c(OC)cc2C1c1cccc([N+](=O)[O-])c1 (centres undefined)
y

Dear reviewer, please state whether CCN(CC)CC(=O)N1CCc2cc(OC)c(OC)cc2C1c1ccc(Cl)cc1 (centres undefined) has ED50 strictly beneath 30 µmol/kg.
y

is_below(ED50, 30 µmol/kg) for COc1cc2c(cc1OC)C(c1ccc(Cl)cc1)N(C(=O)CN1CCOCC1)CC2 (centres undefined) ?
n

Here's an entry: CC(=O)N1N=C(c2ccc(N)cc2)c2cc3c(cc2C[C@H]1C)OCO3 . Is its ED50 below 30 µmol/kg?
y

Input COc1cc2c(cc1OC)C(c1ccc(F)cc1)N(C(=O)CN1CCCCC1)CC2 (centres undefined) ; condition: ED50 strictly below 30 µmol/kg. Does it hold?
n

Identify whether the compound COc1cc2c(cc1OC)C(c1ccc([N+](=O)[O-])cc1)N(C(=O)CN1CCCCC1)CC2 (centres undefined) records ED50 below 30 µmol/kg.
n

Would you kindly verify if ED50 of COc1cc2c(cc1OC)C(c1ccc(Br)cc1)N(C(=O)CN1CCOCC1)CC2 (centres undefined) is strictly less than 30 µmol/kg?
n

I wonder whether COc1cc2c(cc1OC)C(c1cccc([N+](=O)[O-])c1)N(C(=O)CN1CCOCC1)CC2 (centres undefined) has ED50 below 30 µmol/kg. Can you tell?
n
